test system: Human papillomavirus type 1a E7 protein (residues 1-88); assay: HPV1a E7 small-molecule binders, primary screen, biochemical, small-molecule microarray, residues 1-88, 635 nm (AID 1129); settings: small-molecule microarray binding, fluorescence 635 nm; higher = more signal
Reported composite z-score maps to class as: Low (below -0.5), Medium (-0.5 to below -0.007), High (-0.007 or more)

Before answering, review these 8 worked examples.
molecule	discreteLabel
C=C(CCCC)C(=O)CC[C@@H](OC(C)=O)c1cccc(OCCO)c1	Low
COc1ccc(COC(=O)NN=C2C[C@@H](O)[C@@H](O)[C@@H]3[C@@H]4C(=O)N(c5ccc(F)cc5F)C(=O)[C@@H]4CC[C@@H]23)cc1	Low
CCN(CC)c1ccc(N2CC=CC34O[C@@H]5/C=C\CCC(C)OC(=O)C5[C@H]3C(=O)N(CCCO)[C@@H]4C2=O)cc1 (stereo partly specified)	Medium
CC(C)[C@H](NC(=O)OC(C)(C)C)[C@@H](O)CC(=O)OC(C)(C)C	Low
O=C(NN=C1C[C@@H](O)[C@@H](O)[C@@H]2[C@@H]3C(=O)N(c4cccc(Oc5ccccc5)c4)C(=O)[C@@H]3CC[C@@H]12)OCc1ccccc1	High
O=C1[C@H]2[C@H]3[C@H](O)[C@H](O)CC(=NO[C@@H]4O[C@H](CO)[C@@H](O)[C@H](O)[C@H]4O)[C@@H]3CC[C@H]2C(=O)N1Cc1ccc2c(c1)OCO2	High
CO[C@H]1COC(=O)[C@@H]2CCCN2C(=O)CC=C[C@@H](C)[C@H](OC)COC(=O)CC=C[C@@H]1C	Low
COC(=O)[C@H](C)NC(=O)CCC1CC(OC(=O)NCc2cccc3ccccc23)CC2(CCCC(COC(=O)NCC3CCCCC3)O2)O1 (stereo partly specified)	High

Req: Which category fits this record: `CC(C)OC(=O)C=C1C[C@@H](c2ccc(C#N)cc2)O[C@@H](c2ccc(C#N)cc2)O1`
Resp: High

Req: Which category fits this record: `CC(C)C[C@@H]1NC(=O)[C@H]2C[C@@H](C(=O)O)[C@@H](c3ccc(O)cc3)N2C1=O`
Resp: Low

Req: Which category fits this record: `O=C1[C@H]2[C@H]3[C@H](O)[C@H](O)CC(=NO[C@@H]4O[C@H](CO)[C@@H](O)[C@H](O)[C@H]4O)[C@@H]3CC[C@H]2C(=O)N1Cc1ccccc1`
Resp: Low

Req: Which category fits this record: `COC(=O)CC=C[C@H](C)[C@@H](OCc1ccccc1Br)C(C)C`
Resp: Medium

* * *

test system: Sam68 (KHDRBS1); assay: Sam68 small-molecule binders, primary screen, biochemical, small-molecule microarray, 635 nm fluorescence (AID 1125); details: small-molecule microarray binding, higher = more signal;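 also: score merges 667 nm channel intensity with signal to noise over triplicate slides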
attributeMeasured: composite z-score
Kindly provide the number alone.

compound	reportedValue
COC(=O)[C@@H]1N=C(c2ccc(OCCCO)cc2)O[C@@H]1c1ccccc1N=[N+]=[N-]	1.05
CCCNC(=O)OC[C@H]1O[C@H](CCON=C[C@@H](OC)[C@H](C)C=CCC(=O)OC)C=C[C@@H]1Oc1ccc(OC)cc1	0.693
COC(=O)[C@@H]1CCCN1C(=O)[C@@H](C)CO	0.95
COC(=O)CC=C[C@@H](C)[C@@H](C=NO[C@H](C)c1cn([C@@H]2COC[C@H]2O)nn1)OC	0.747
COCCOC(=O)N1C(=O)[C@@]2(c3cc(C#Cc4ccc(OC)cc4)ccc31)[C@H](c1ccc(O)cc1)N1[C@H](c3ccccc3)[C@H](c3ccccc3)OC(=O)[C@H]1[C@@H]2C(N)=O	1.29
CC1CC/C=C\[C@H]2OC34C=CCN(Cn5nnc6ccccc65)C(=O)[C@H]3N(CCO)C(=O)[C@@H]4C2C(=O)O1 (stereo not given in full)	0.0381
COC(=O)[C@@]1(Cc2ccccc2)[C@H]2c3cc(C(=O)N4CCCC4)n(Cc4ccccn4)c3C[C@H]2CN1C(=O)c1ccccc1	1.29
COc1ccc([Si](C)(C)[C@@H]2[C@@H](CC(=O)N3CCC[C@H]3CO)O[C@]3(C(=O)N(Cc4cccc(N5CCC5=O)c4)c4ccccc43)[C@H]2C)cc1	1.31

Req: So what does the record say about composite z-score for `CCCCC(=C=CC[C@H](O)c1ccccc1OCCO)C[C@H](O)COCc1ccccc1` ?
Resp: -0.0664

Req: So what does the record say about composite z-score for `CC(C)[C@@H](OCc1ccccc1)[C@H](C)C=NO[C@H](C)c1cn([C@H](CO)Cc2ccccc2)nn1` ?
Resp: 1.01

Req: So what does the record say about composite z-score for `C[C@H]1CC[C@@H](C(=O)O)N[C@@H]1c1ccc(C#CCN(C)C)cc1` ?
Resp: -0.331

Req: So what does the record say about composite z-score for `COCCOC(=O)N1C(=O)[C@@]2(c3ccccc31)[C@H](C(N)=O)[C@H]1C(=O)O[C@H](c3ccccc3)[C@H](c3ccccc3)N1[C@@H]2c1ccccc1OCCO` ?
Resp: 1.3

Req: So what does the record say about composite z-score for CS(=O)(=O)CCOC(=O)C1=CC(CCCO)=CC(c2cccs2)N(Cc2cccc(OC(F)(F)F)c2)C=C1C(=O)OCCS(C)(=O)=O (stereo not given) ?
Resp: 1.18

Req: So what does the record say about composite z-score for `C=CC[C@@H]1C=C[C@H](ON=C[C@@H](OC)[C@H](C)C=CCC(=O)OC)[C@@H](CO)O1` ?
Resp: 0.496

Req: So what does the record say about composite z-score for `CC(CCN1CCc2nc(-c3ccccc3)c(-c3ccccc3)cc2C1)=NO[C@H](C)c1cn([C@@H]2COC[C@H]2O)nn1` ?
Resp: 1.31

Req: So what does the record say about composite z-score for COC(=O)[C@H](C)NC(=O)CCC1CC(OC(=O)NCCc2ccc(F)cc2)CC2(CCCC(COC(=O)NCC(c3ccccc3)c3ccccc3)O2)O1 (stereo not given in full) ?
Resp: 1.22

Req: So what does the record say about composite z-score for `Cn1c(=O)n2n(c1=O)[C@H]1[C@H](O)[C@@H]3O[C@@H]3C(=NOC[C@@H](O)COCc3ccco3)[C@H]1CC2` ?
Resp: 0.373

Req: So what does the record say about composite z-score for `CCOC(=O)CCN1C(=O)[C@H]2[C@H]3[C@H](O)[C@H](O)CC(=NOCc4ccccc4)[C@@H]3CC[C@H]2C1=O` ?
Resp: 0.37

Req: So what does the record say about composite z-score for `CO[C@H]1COC(=O)CC=C[C@H](C)[C@@H](NS(=O)(=O)c2ccc(C)cc2)COC(=O)CC=C[C@@H]1C` ?
Resp: 0.165

Req: So what does the record say about composite z-score for `O=C1[C@H]2[C@H]3[C@H](O)[C@H](O)CC(=NOCc4ccccc4)[C@H]3CC[C@H]2C(=O)N1c1ccc(F)cc1F` ?
Resp: -0.626

Req: So what does the record say about composite z-score for `COc1ccc([Si](C)(C)[C@@H]2[C@@H](CCO)O[C@]3(C(=O)N(Cc4ccc(NC(C)=O)cc4)c4ccccc43)[C@H]2C)cc1` ?
Resp: 1.15

Req: So what does the record say about composite z-score for Cc1ccc(C2CC=C(C(=O)O)CN2S(=O)(=O)c2ccc(C)cc2)cc1 (stereo not given) ?
Resp: 1.32

Req: So what does the record say about composite z-score for `C#CCCCON=C1C[C@@H](O)[C@@H](O)[C@@H]2[C@@H]3C(=O)N(Cc4ccccc4)C(=O)[C@@H]3CC[C@H]12` ?
Resp: -0.0716

Req: So what does the record say about composite z-score for `CCN1C(=O)[C@H]2[C@H]3[C@H](O)[C@H](O)CC(=NOCC=C(C)CCC=C(C)C)[C@H]3CC[C@H]2C1=O` ?
Resp: 1.3

Req: So what does the record say about composite z-score for `COc1ccc(-c2nc3c(c4c2C[C@H](C)OC4)CN(CCC(C)C)CC3)cc1` ?
Resp: 1.23

Req: So what does the record say about composite z-score for `CC(C)C[C@@H]1NC(=O)[C@H]2C[C@@H](C(=O)O)[C@@H](c3ccc(O)cc3)N2C1=O` ?
Resp: 0.62

Req: So what does the record say about composite z-score for `O=C1[C@H]2[C@H]3[C@H](O)[C@H](O)CC(=NO[C@@H]4O[C@H](CO)[C@@H](O)[C@H](O)[C@H]4O)[C@@H]3CC[C@H]2C(=O)N1Cc1ccccc1` ?
Resp: 0.64

Req: So what does the record say about composite z-score for `CC(C)C[C@@H]1NC(=O)[C@H]2C[C@@H](C(=O)NCCCCCCN(C)C)[C@@H](c3cccc(OCCO)c3)N2C1=O` ?
Resp: 1.31

Req: So what does the record say about composite z-score for `CCCC=C(CCC)[C@@H](NC(=O)c1ccc(-c2ccccc2)cc1)c1ccc(C(=O)OC)cc1` ?
Resp: 1.26

Req: So what does the record say about composite z-score for CCOC(=O)[C@H](CC(C)C)NC(=O)CCC1CC(OC(=O)NCCc2ccc(F)cc2)CC2(CCCC(COC(=O)NCc3ccccc3)O2)O1 (stereo not given in full) ?
Resp: 1.14
